# Test system: ATP;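 note: ATP exposure 15 min at 22 °C before imaging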
# ASSAY DETAILS: switch fluorescence ratio, 500 uM ATP over buffer (Cy3 cluster intensity, sum of 5 cycles each) (fold (ratio)); higher = stronger signal-on switching upon ATP binding; sequences stand for … in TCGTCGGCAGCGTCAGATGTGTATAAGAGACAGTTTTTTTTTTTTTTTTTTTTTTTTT…TC
# DETAILS: aptamer strand: ATP DNA aptamer (quencher-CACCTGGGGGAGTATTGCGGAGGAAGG + anchor), 100 nM annealed; ATP concentration: 500 uM
MEASUREMENT LABEL: switch fluorescence ratio

{"columns": ["CHAIN SEQUENCE", "OBS VALUE"],
 "data": [
  ["TAAGTGACAG", 1.01],
  ["GATGGGCGGG", 1.03],
  ["GCGGTGAGGG", 0.993],
  ["TAAAGACCGA", 1.08],
  ["TTTCCTCCCT", 1.84],
  ["TTTGTTTACT", 0.992],
  ["TGTTTAAAAT", 1.02],
  ["TGCAGTCTAG", 1.07],
  ["CTTTTAATTT", 1.04],
  ["CGGACTCAAA", 1.12],
  ["TTAAGGGAAC", 0.997],
  ["TTTAAATAAA", 1],
  ["GTGGATACTA", 1.01],
  ["CTGACTTACG", 1.11],
  ["GTGATTCCGA", 1.02],
  ["TCAGCGGTTT", 0.96],
  ["TCTTAATTTT", 0.973],
  ["TTAGTTGAAT", 0.985],
  ["ATTAAAACTT", 1.05],
  ["AAGATCTCGC", 0.994],
  ["CGTAGAAAAG", 0.998],
  ["AAGAGCTAGT", 1],
  ["CCCTGTCGGC", 0.997],
  ["AGGGGGGGG", 1.03],
  ["GGAGAATATG", 1.04]
]}

----------
The entries below come with measured switch fluorescence ratio values attached.
# System: ATP;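 note: ATP exposure 15 min at 22 °C before imaging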
# ASSAY DETAILS: switch fluorescence ratio, 500 uM ATP over buffer (Cy3 cluster intensity, sum of 5 cycles each) (fold (ratio)); higher = stronger signal-on switching upon ATP binding; sequences stand for … in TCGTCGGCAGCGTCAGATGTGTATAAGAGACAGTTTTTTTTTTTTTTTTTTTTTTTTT…TC
# DETAILS: aptamer strand: ATP DNA aptamer (quencher-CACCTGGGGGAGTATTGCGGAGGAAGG + anchor), 100 nM annealed; ATP concentration: 500 uM

{"columns": ["CHAIN SEQUENCE", "switch fluorescence ratio"],
 "data": [
  ["CATTGGTGGT", 0.989],
  ["TTAGGCTACT", 1.01],
  ["CGCGCCGTTG", 1],
  ["GATGTTAAGC", 0.987],
  ["GGGTATAGTC", 1.02],
  ["TGGGGGGTTA", 0.995],
  ["ATGTATCACT", 0.984],
  ["AGGGCTCCTG", 1.02],
  ["TTGCAGTTGT", 0.993],
  ["TGGGAACGTC", 1.02],
  ["AGTTGCGGTT", 1],
  ["CACCGGGGTT", 1.01],
  ["TCGGGAGTCA", 1.01],
  ["GGCGAGTTAC", 1.02],
  ["GTGGTTTCTG", 0.984],
  ["TGTTTACAGC", 0.997],
  ["TATGTGAGCA", 0.99],
  ["AGTGGTAAAG", 1.01],
  ["ATCTATGGTG", 1.02],
  ["TAGAAGGAAA", 1],
  ["AAGGGCTTGC", 1.01],
  ["TGGATTTCGC", 1],
  ["AAATATATCT", 0.987],
  ["TGGTTTAGGT", 0.995],
  ["CGTTTGGACG", 0.989]
]}

----------
# Test system: ATP;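 note: ATP exposure 15 min at 22 °C before imaging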
# ASSAY DETAILS: switch fluorescence ratio, 500 uM ATP over buffer (Cy3 cluster intensity, sum of 5 cycles each) (fold (ratio)); higher = stronger signal-on switching upon ATP binding; sequences stand for … in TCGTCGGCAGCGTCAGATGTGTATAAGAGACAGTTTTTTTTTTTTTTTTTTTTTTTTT…TC
# DETAILS: aptamer strand: ATP DNA aptamer (quencher-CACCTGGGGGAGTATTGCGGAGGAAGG + anchor), 100 nM annealed; ATP concentration: 500 uM
The entries below come with measured switch fluorescence ratio values attached.
MEASUREMENT LABEL: switch fluorescence ratio

{"columns": ["CHAIN SEQUENCE", "OBS VALUE"],
 "data": [
  ["TAAAATTCTT", 1.01],
  ["CAGAAAAAAC", 1.05],
  ["TTTAGGGACA", 1.15],
  ["GGACGGAAGA", 1.1],
  ["GGAGAAAGCG", 0.976],
  ["GGTGTGAGAG", 1.02],
  ["TTAAGTTCTT", 0.996]
]}

----------
# Tested on: ATP;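 note: ATP exposure 15 min at 22 °C before imaging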
# ASSAY DETAILS: switch fluorescence ratio, 500 uM ATP over buffer (Cy3 cluster intensity, sum of 5 cycles each) (fold (ratio)); higher = stronger signal-on switching upon ATP binding; sequences stand for … in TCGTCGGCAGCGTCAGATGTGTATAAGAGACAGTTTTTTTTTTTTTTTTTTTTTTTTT…TC
# DETAILS: aptamer strand: ATP DNA aptamer (quencher-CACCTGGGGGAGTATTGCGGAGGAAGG + anchor), 100 nM annealed; ATP concentration: 500 uM

{"columns": ["CHAIN SEQUENCE", "switch fluorescence ratio"],
 "data": [
  ["GGATTAATCG", 1],
  ["CGAACCTTCG", 2.35],
  ["AGTGGTGTGG", 0.993],
  ["TTGTCATTTT", 1.04],
  ["TTTTAATTGG", 1.01],
  ["CGAGGGGGCC", 0.97],
  ["AGGGGGTCGA", 1.01],
  ["TTACTTTTGT", 1.02],
  ["CGGGAGAGGT", 0.988],
  ["GAGTACTAGA", 1.02],
  ["AGTGGACGAC", 0.991],
  ["TGTAATCAAA", 1],
  ["AGATTATGGG", 0.974],
  ["AGTGGGTGTT", 1.01],
  ["AGTCGGACGG", 1.01],
  ["TGCGGGCCAT", 1.03],
  ["AAGGATCGTT", 1],
  ["GTTGAAGAAA", 0.998]
]}

----------
# Test system: ATP;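 note: ATP exposure 15 min at 22 °C before imaging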
# ASSAY DETAILS: switch fluorescence ratio, 500 uM ATP over buffer (Cy3 cluster intensity, sum of 5 cycles each) (fold (ratio)); higher = stronger signal-on switching upon ATP binding; sequences stand for … in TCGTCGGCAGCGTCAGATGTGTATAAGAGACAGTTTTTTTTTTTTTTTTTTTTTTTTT…TC
# DETAILS: aptamer strand: ATP DNA aptamer (quencher-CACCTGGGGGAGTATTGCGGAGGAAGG + anchor), 100 nM annealed; ATP concentration: 500 uM
The entries below come with measured switch fluorescence ratio values attached.

{"columns": ["CHAIN SEQUENCE", "switch fluorescence ratio"],
 "data": [
  ["CGTATTTGTA", 1.01],
  ["AACTTTTCAT", 1.02],
  ["ACTCATTTGG", 1],
  ["GGGGGTTTTC", 1.01],
  ["TTGCTAGTTA", 0.971],
  ["CTAAGCGGGA", 1.05],
  ["TTCGGCTGGG", 0.98],
  ["CGTAGTTGG", 0.988],
  ["GATATGAGCG", 1],
  ["TAAGGGGGGA", 1.03],
  ["CGGGCAATTT", 1.38],
  ["CCGTTATGCA", 1.26]
]}
